# protein stability index annotations
- experiment description: protein stability index of a GFP-peptide fusion (yeast GPS) (PSI 1-4); higher = more stable; sorted into four equal gates, so the index is relative within each strain
- condition label: san1∆
measured endpoint: protein stability index

entry_sequence="MAAALPNPTPSMINSVS [PGD1]" recorded_number=2.05
entry_sequence="KKNKRALPNIENDIIKL [BRR2]" recorded_number=3.23
entry_sequence="CVYVPNFNASLQLTTNT [SNM1]" recorded_number=2.52
entry_sequence="NVAHRIKEDIKKQPSIL [SNF2]" recorded_number=3.05
entry_sequence="QQGQNMSEQQWREQLRN [ROX3]" recorded_number=2.42
entry_sequence="NSLKETLQDFHLIFSNA [SNF2]" recorded_number=2.27
entry_sequence="APIQLKIDLLSGQFYFR [RGR1]" recorded_number=2.15
entry_sequence="ESVIEQIVKYARKGLTP [RPS13]" recorded_number=2.76
